Tested on: Escherichia coli, Staphylococcus aureus, Pseudomonas aeruginosa
Assay: Preservative screening test (modified USP/EP preservative efficacy test), bacteria
Type: cell-based
Conditions: quadratic term of one preservative (bii); ± 95% confidence limits
assay-endpoint: b-coefficient, Bacterial LR

stdin: I am curious: what b-coefficient, Bacterial LR value has been reported for "CCCOC(=O)c1ccc(O)cc1" ?
stdout: 0.26 ± 0.10

stdin: I am curious: what b-coefficient, Bacterial LR value has been reported for "CC(C)(O)C(Cl)(Cl)Cl" ?
stdout: 0.17 ± 0.10

stdin: I am curious: what b-coefficient, Bacterial LR value has been reported for "COC(=O)c1ccc(O)cc1" ?
stdout: 0.12 ± 0.10

stdin: I am curious: what b-coefficient, Bacterial LR value has been reported for "OCc1ccccc1" ?
stdout: −0.68 ± 0.11

* * *

Tested on: formulated humanized monoclonal antibody
Test: Size-exclusion chromatography (SEC), monomer content
Assay type: physicochemical
Details: preliminary screening; 2 days at 50° C.
assay-endpoint: Effect of the preservative on antibody stability (in words)

compound="CCCOC(=O)c1ccc(O)cc1 [Propyl paraben, propyl paraben]" measurement=stable
compound="COC(=O)c1ccc(O)cc1 [Methyl paraben, methyl paraben]" measurement=stable

* * *

System: Candida albicans, and Aspergillus niger
Assay: Preservative screening test (modified USP/EP preservative efficacy test), fungi
Format: cell-based
Conditions: main effect of the preservative (bi)
Measured b-coefficient, Fungal LR, listed per entry for reference.
Just the number, please, no unit attached.

Solved cases below.
chemical_structure=COC(=O)c1ccc(O)cc1 measurement=0.46
chemical_structure=CCCOC(=O)c1ccc(O)cc1 measurement=0.29
chemical_structure=CC(C)(O)C(Cl)(Cl)Cl measurement=0.07

Then there is this compound:
stdin: I am curious: what b-coefficient, Fungal LR value has been reported for "OCc1ccccc1" ?
stdout: 0.51
